Cited source for all entries: PubChem BioAssay (NCATS)

Assay: Cell Proliferation Assay against the TMD8 Cell Line (AID 651645);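 note: cells exposed to compound for 48 h before reading; 100% = DMSO and 0% = 9.2 µM bortezomib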
Conditions: TMD8 DLBCL cell line proliferation/viability; at 46.1 µM (top of the series)
I'd appreciate it if you could supply viability (% of control) values for the items below.
Give just the number in %; leave the unit off.

Request: Hello, please tell me recorded viability (% of control) for this one: "CC(=O)NCCC(=O)N[C@@H](CCC(N)=O)C(=O)N[C@@H](CO)C(=O)N[C@@H](CCC(N)=O)C(=O)N[C@@H](CCC(N)=O)C(=O)N[C@H](C(=O)N[C@@H](Cc1ccccc1)C(=O)N[C@]1(C)CCCCCCC=CCCC[C@@](C)(C(=O)N[C@@H](CCC(N)=O)C(=O)N[C@@H](CC(N)=O)C(N)=O)NC(=O)[C@H](CC(C)C)NC(=O)[C@H](CC(C)C)NC(=O)[C@@H](CCCNC(=N)N)NC(=O)[C@H](Cc2c[nH]c3ccccc23)NC(=O)[C@H](CC(C)C)NC(=O)[C@H](CC(N)=O)NC1=O)[C@H](C)O"
Response: 22.4

Request: Hello, please tell me recorded viability (% of control) for this one: "OCCn1cc(-c2ccc3c(c2)CCC3=NO)c(-c2ccncc2)n1"
Response: 80.7

Request: Hello, please tell me recorded viability (% of control) for this one: "CNC(=O)c1cc(COc2nnc(Nc3ccc(Cl)cc3)c3ccoc23)ccn1"
Response: 39.7

Request: Hello, please tell me recorded viability (% of control) for this one: "CCCCOCCOc1nc(-c2ccc(C(=O)O)c(F)c2)sc1C"
Response: 98.4

Request: Hello, please tell me recorded viability (% of control) for this one: "CC1=C[C@@H]2[C@@H]([C@@H](O)C[C@@]3(C)[C@H]2C[C@@H](C)[C@]3(O)C(=O)CO)[C@@]2(C)Cc3cnn(-c4ccccc4)c3C=C12"
Response: 0.486

Request: Hello, please tell me recorded viability (% of control) for this one: "O=C(Nc1cccc(Cl)c1)Nc1ncc(CCNc2ncnc3ccsc23)s1"
Response: 1.73

Request: Hello, please tell me recorded viability (% of control) for this one: "COc1ccc(CCN(C)CCCOc2ccc(S(=O)(=O)c3[nH]c4ccccc4c3C(C)C)cc2)cc1OC"
Response: 4.97

Request: Hello, please tell me recorded viability (% of control) for this one: "COc1cc2c(cc1OC)CC(=O)N(CCCN(C)C[C@H]1Cc3cc(OC)c(OC)cc31)CC2"
Response: 108

Request: Hello, please tell me recorded viability (% of control) for this one: "COc1ccc2c(c1)CC[C@H]1[C@@H]2CC[C@]2(C)[C@@H](NCCCCCCN3C(=O)C=CC3=O)CC[C@H]12"
Response: 15.9

Request: Hello, please tell me recorded viability (% of control) for this one: "CCCCc1ccc(NS(=O)(=O)c2ccc(C)c(C(=O)N3CCN(c4cccc(C)c4C)CC3)c2)cc1"
Response: 9.89

Request: Hello, please tell me recorded viability (% of control) for this one: "O=C(O)Cc1cccc(OCCCN(Cc2cccc(C(F)(F)F)c2Cl)CC(c2ccccc2)c2ccccc2)c1"
Response: 8.71

Request: Hello, please tell me recorded viability (% of control) for this one: "COc1cc2nccc(Oc3ccc(NC(=O)Nc4cc(C)on4)c(Cl)c3)c2cc1OC"
Response: 6.06

Request: Hello, please tell me recorded viability (% of control) for this one: "COc1nc(C)cnc1NS(=O)(=O)c1cccnc1-c1ccc(-c2nnco2)cc1"
Response: 116

Request: Hello, please tell me recorded viability (% of control) for this one: "Cc1ccc(NC(=O)c2ccc(CN3CCN(C)CC3)cc2)cc1Nc1nc(-c2cccnc2)cs1"
Response: 8.7

Request: Hello, please tell me recorded viability (% of control) for this one: "CCc1cc(-c2n[nH]c(C)c2-c2ccc3c(c2)OCCO3)c(O)cc1O"
Response: 38.2
